- assay_summary: chemical genetic growth profiling, strain panel (AID 1159580);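 further: tested at 20 µM; growth read once vehicle control cultures reached saturation at 30 °C; 1 = growth at the plate median or of vehicle wells; lower values mean less growth of the strain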
- applied_conditions: S. cerevisiae deletion strains, growth OD, locus YEL061C, strain CIN8 (second series), hits give low values
In all, about 5,500 compounds went through this assay and about 2,000 (36%) were called active. Roughly 18% stayed inconclusive and do not appear here. The list shows a part of the results.
# normalized growth per record follows
Keep the answer to the number alone.

CC(C(=O)O)c1ccc2c(c1)[nH]c1ccc(Cl)cc12 (stereo not drawn) :: 0.975
O=C(O)c1cc(=O)c2ccc(Cl)cc2[nH]1 :: 1.01

Can you look up the measured normalized growth of CC(C)(N=NC(C)(C)C(=N)N)C(=N)N for me?
1.02

###

- assay_summary: chemical genetic growth profiling, strain panel (AID 1159580)
- applied_conditions: S. cerevisiae deletion strains, growth OD, locus YMR263W, strain SAP30, hits give low values
The campaign covered roughly 5,500 compounds. About 2,000 (36%) were called active. Not shown: some 18% with an inconclusive outcome. This is one part of the list.
reported_property: normalized growth
Keep the answer to the number alone.

Field: example entries. Status: answers known.
CCCCCC(C)N (stereo unspecified) :: 1.02
CCSC(=N)N :: 1.01
COc1ccccc1CC(=O)NC1CCN(Cc2ccccc2)CC1 :: 1.02
O=C(c1ccccc1)C1CCN(c2ccc(C(F)(F)F)cc2[N+](=O)[O-])CC1 :: 0.998
COc1ccc(-c2c(O)c3cc4c(c(CC=C(C)C)c3oc2=O)OC(C)(C)CC4)cc1 :: 1.01

Can you look up the measured normalized growth of Oc1ccc2c3c1O[C@H]1c4[nH]c5c(c4C[C@@]4(O)[C@@H](C2)N(CC2CC2)CC[C@]314)C[C@@]1(O)[C@H]2Cc3ccc(O)c4c3[C@@]1(CCN2CC1CC1)[C@H]5O4 for me?
0.982

Can you look up the measured normalized growth of CN(C)/C=C1\C(=O)c2ccccc2N(C)S1(=O)=O for me?
1

Can you look up the measured normalized growth of CN(C)/C=C(\C#N)C(=O)Nc1ccc(F)c(Cl)c1 for me?
1

Can you look up the measured normalized growth of CNc1ccccc1C(=O)N1CCc2c([nH]c3ccccc23)C1=O for me?
1.01

Can you look up the measured normalized growth of Nc1cc(-c2ccc(Cl)cc2)nc(N)n1 for me?
0.996

###

- assay_summary: chemical genetic growth profiling, strain panel (AID 1159580)
- applied_conditions: S. cerevisiae deletion strains, growth OD, locus YDR334W, strain swr1
The whole screen tested about 5,500 compounds, of which about 2,000 (36%) were called active. About 18% were inconclusive and are not listed. Rule as the data show it: active = normalized growth mostly below about 0.91 (no sharp cut-off); inconclusive = no clear call, values can overlap the other calls; inactive = mostly above about 0.92. The list shows a part of the results.
Mark one answer only. Choices: 1 (active), 0 (inactive)

Study these solved cases before continuing.
COc1ccc(C[C@H]2NC[C@H](O)[C@H]2OC(C)=O)cc1 :: 1
NC/C=C/C(=O)O :: 0

In this assay, the call recorded for O=c1ccc2cc(O)c(O)cc2o1 was what?
0

###

# normalized growth per record follows
- assay_summary: chemical genetic growth profiling, strain panel (AID 1159580)
- applied_conditions: S. cerevisiae deletion strains, growth OD, locus YNL197C, strain WHI3, hits give low values
Hit rate of the full screen: of about 5,500 compounds, about 2,000 (36%) were called active. Inconclusive results (about 18%) are left out. The list shows a part of the results.
Keep the answer to the number alone.

Can you look up the measured normalized growth of CC(=O)SCC[N+](C)(C)C for me?
1.02

Can you look up the measured normalized growth of CCN(CC)C(=S)SSC(=S)N(CC)CC for me?
0.0658

Can you look up the measured normalized growth of C[C@H](NC(=O)/C(C#N)=C/c1ccc(O)c(O)c1)c1ccccc1 for me?
0.987

Can you look up the measured normalized growth of CC(=O)OC1C(=O)C2(C)C(O)CC3OCC3(OC(C)=O)C2C(OC(=O)c2ccccc2)C2(O)CC(OC(=O)C(O)C(NC(=O)c3ccccc3)c3ccccc3)C(C)=C1C2(C)C (configuration not stated) for me?
0.981

Can you look up the measured normalized growth of CCCC(=O)NCCc1c2n(c3ccc(OC)cc13)CCCc1ccccc1-2 for me?
0.995

Can you look up the measured normalized growth of CC(C)C[C@H]1C(=O)N2CCC[C@H]2[C@]2(O)O[C@](NC(=O)[C@@H]3C=C4c5cccc6[nH]c(Br)c(c56)C[C@H]4N(C)C3)(C(C)C)C(=O)N12 for me?
1.01

Can you look up the measured normalized growth of O=c1[nH]c2ccccc2c2ccccc12 for me?
0.967

Can you look up the measured normalized growth of O=C(O)[C@@H]1C[C@H](C(=O)O)N1 for me?
0.967

###

# normalized growth per record follows
- assay_summary: chemical genetic growth profiling, strain panel (AID 1159580)
- applied_conditions: S. cerevisiae deletion strains, growth OD, locus YLL026W, hits give low values
The campaign covered roughly 5,500 compounds. About 2,000 (36%) were called active. Not shown: some 18% with an inconclusive outcome. The list shows a part of the results.
Keep the answer to the number alone.

CC(=O)O[C@]1(C(C)=O)CCC2C3C[C@H](C)C4=CC(=O)CC[C@]4(C)C3CC[C@@]21C (some centres undefined) :: 0.976
CC(C)N(C(=O)CCl)c1ccccc1 :: 1.01
CN=C(NC#N)NCCSCc1nc[nH]c1C :: 0.997
COC(=O)[C@@H]1C(O)CC[C@H]2CN3CCc4c([nH]c5ccccc45)[C@@H]3C[C@@H]21 (some centres undefined) :: 1.01
CC(=O)O[C@]1(C(C)=O)CCC2C3C=C(Cl)C4=CC(=O)CC[C@]4(C)C3CC[C@@]21C (some centres undefined) :: 1

Can you look up the measured normalized growth of CCCCCCCC/C=C/CCCCCCCCOP(=O)([O-])OCC[N+](C)(C)C for me?
0.0528

Can you look up the measured normalized growth of OCc1ccccc1O[C@@H]1O[C@H](CO)[C@@H](O)[C@H](O)[C@H]1O for me?
0.999

Can you look up the measured normalized growth of CCCCCC(=O)O[C@]1(C(C)=O)CCC2C3CCC4=CC(=O)CC[C@]4(C)C3CC[C@@]21C (some centres undefined) for me?
1.01

###

- assay_summary: chemical genetic growth profiling, strain panel (AID 1159580);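 further: tested at 20 µM; growth read once vehicle control cultures reached saturation at 30 °C; 1 = growth at the plate median or of vehicle wells; lower values mean less growth of the strain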
- applied_conditions: S. cerevisiae deletion strains, growth OD, locus YJL187C, strain SWE1 (second series), hits give low values
In all, about 5,500 compounds went through this assay and about 2,000 (36%) were called active. Another 18% or so got no clear call; they are omitted. Some of the results follow.
reported_property: normalized growth
Keep the answer to the number alone.

Oc1ccc(O)cc1 :: 1.01

Can you look up the measured normalized growth of COc1ccc(C2CC(=O)c3ccc(OC)cc3O2)cc1 (stereo not given) for me?
0.868

Can you look up the measured normalized growth of OCCN(CCO)c1nc(N2CCCCC2)c2nc(N(CCO)CCO)nc(N3CCCCC3)c2n1 for me?
1

Can you look up the measured normalized growth of COc1c(CC=C(C)C)c2c(c3oc(=O)c(-c4ccc(O)cc4)c(O)c13)C=CC(C)(C)O2 for me?
0.945

Can you look up the measured normalized growth of CC(C)=CCc1c(O)cc(C)oc1=O for me?
1

Can you look up the measured normalized growth of NC(N)=NOCC[C@H](N)C(=O)O for me?
1.01

###

- assay_summary: chemical genetic growth profiling, strain panel (AID 1159580);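 further: tested at 20 µM; growth read once vehicle control cultures reached saturation at 30 °C; 1 = growth at the plate median or of vehicle wells; lower values mean less growth of the strain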
- applied_conditions: S. cerevisiae deletion strains, growth OD, locus YBR231C, strain swc5, hits give low values
Out of some 5,500 compounds screened, about 2,000 (36%) were called active. Not shown: some 18% with an inconclusive outcome. Some of the results follow.
reported_property: normalized growth
Keep the answer to the number alone.

COc1cccc([C@]2(O)CCCC[C@H]2CN(C)C)c1 :: 0.99

Can you look up the measured normalized growth of NCC1CCCCC1CC(=O)O (stereo not given) for me?
1.01

Can you look up the measured normalized growth of CN=C(NC#N)NCCSCc1nc[nH]c1C for me?
1

Can you look up the measured normalized growth of C=C1CC[C@H](O)C/C1=C/C=C1\CCC[C@]2(C)C([C@H](C)/C=C/[C@H](C)C(C)C)CC[C@@H]12 (stereo not given in full) for me?
0.995

###

- assay_summary: chemical genetic growth profiling, strain panel (AID 1159580);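 further: tested at 20 µM; growth read once vehicle control cultures reached saturation at 30 °C; 1 = growth at the plate median or of vehicle wells; lower values mean less growth of the strain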
- applied_conditions: S. cerevisiae deletion strains, growth OD, locus YJL166W, strain qcr8, hits give low values
Screen size: about 5,500 compounds; about 2,000 (36%) were called active. About 18% were inconclusive and are not listed. This is one part of the list.
reported_property: normalized growth
Keep the answer to the number alone.

Field: example entries. Status: answers known.
CC(C)N(C(=O)CCl)c1ccccc1 :: 0.955
NC[C@@H]1O[C@H](O[C@@H]2[C@@H](CO)OC(O[C@@H]3[C@@H](O)[C@H](N)C[C@H](N)[C@H]3OC3O[C@H](CN)[C@@H](O)[C@H](O)[C@H]3N)[C@@H]2O)[C@H](N)[C@@H](O)[C@@H]1O (some centres not stated) :: 1.04
CC[C@@H](CO)NCCN[C@@H](CC)CO :: 1.05
NC(N)=Nc1nc(CSCCC(N)=NS(N)(=O)=O)cs1 :: 0.981
COc1ccc(C(=O)c2ccccc2)c(O)c1 :: 0.742

Can you look up the measured normalized growth of COC(=O)C1[C@H]2C[C@H]3c4[nH]c5ccccc5c4CCN3C[C@@H]2CC[C@@H]1O (some centres not stated) for me?
0.953

Can you look up the measured normalized growth of C[N+](C)(C)CC(=O)[O-] for me?
0.978

Can you look up the measured normalized growth of CC1(C)C2CC[C@]3(C)C(C(=O)C=C4[C@@H]5C[C@@](C)(C(=O)O)CC[C@]5(C)CC[C@]43C)[C@@]2(C)CC[C@@H]1OC(=O)CCC(=O)O (some centres not stated) for me?
0.999

Can you look up the measured normalized growth of Cc1cc(OC(=O)N2CCCCC2)c(C(C)C)cc1[N+](C)(C)C for me?
1.05

Can you look up the measured normalized growth of CCC1(c2ccc(N)cc2)CCC(=O)NC1=O (configuration not stated) for me?
0.913

Can you look up the measured normalized growth of COc1ccc([C@@H]2CC(=O)c3c(O)cc(O)cc3O2)cc1O for me?
0.969

Can you look up the measured normalized growth of N#Cc1c(Cl)c(Cl)c(Cl)c(C#N)c1Cl for me?
0.0732

Can you look up the measured normalized growth of CC(=O)OC1CC23CC24CCC(OC2OCC(O)C(O)C2O)C(C)(C)C4CCC3C2(C)CC3OC4(CC(C)C3C12C)OC(O)C1(C)OC41 (configuration not stated) for me?
1.01

Can you look up the measured normalized growth of O=c1ccc2ccccc2o1 for me?
0.956

Can you look up the measured normalized growth of O=C(O)c1cc(=O)c2ccc(Cl)cc2[nH]1 for me?
1.02
